Every entry's value here was drawn from PubChem BioAssay (NCI).

# System: COLO 205 colon
# protocol-text: NCI-60 one-dose screen, 48 h
# study-conditions: 10 µM unless noted
# Experimental: Cells are grown in 96 well plates and exposed to the test compound for 48 hours. Compounds are tested at a single concentration, which is 10^-5 M for most compounds. The reported endpoint is percent growth (GI% or GIPRCNT), where numbers from 0 - 100% represent growth inhibition, and numbers from -100% - 0 represent cell death. For example, a value of 40 represents 60% growth inhibition. A value of 0 means no net growth occurred over the course of the experiment. […]
The panel holds about 83,000 compounds, 20% with a hit somewhere; the sample as a whole holds those more often. Calls of active or inactive are those of the source. Rule for the calls: active = growth percent below 10; inactive = the rest.
Respond with a class label; see 1 (active), -1 (inactive)

Completed entries (count: 4):
>  <compound>
COc1cc(/C=N/NC(=O)c2ccc(C(F)(F)F)nc2Nc2cc(Cl)ccc2C)cc(OC)c1OC

>  <class>
-1

$$$$
>  <compound>
COc1cc(/C=C/C(=O)c2c(C)n([O-])c3ccc(Cl)cc3[n+]2=O)cc(OC)c1OC

>  <class>
-1

$$$$
>  <compound>
O=c1oc2c(cc1-c1ccc([N+](=O)[O-])cc1)C(O)Oc1ccccc1-2 (stereo not given)

>  <class>
-1

$$$$
>  <compound>
COc1ccc(NC(=O)[C@@H]2C[C@H]2c2ccccc2)c(C(N)=O)c1

>  <class>
-1

$$$$

Now take the following compound into account.
Which outcome was assigned to "COc1ccc2c(c1)CC/C(=C\c1ccc(OCC(=O)Nc3nc4ccccc4s3)cc1)C2=O" in this test?
-1

---

# Tested on: HCT-15 colon
# protocol-text: NCI-60 one-dose screen, 48 h (100 = growth as untreated, 0 = no growth, -100 = all killed)
# study-conditions: 10 µM unless noted
# Protocol: Growth inhibition of the HCT-15 human tumor cell line is measured as a screen for anti-cancer activity. Cells are grown in 96 well plates and exposed to the test compound for 48 hours. Compounds are tested at a single concentration, which is 10^-5 M for most compounds. The reported endpoint is percent growth (GI% or GIPRCNT), where numbers from 0 - 100% represent growth inhibition, and numbers from -100% - 0 represent cell death. For example, a value of 40 represents 60% growth inhibition. […]
About 83,000 compounds went through this panel and 20% of them were active in at least one assay; those are over-represented in the sample as a whole.
A collection of compounds and their measured growth
Hi! Could you send only the number? It should be in %, unit omitted.

Here is how some compounds turned out for growth.
>  <smiles>
O=C(COc1cccc(/C=C2\Oc3ccc4ccccc4c3C2=O)c1)c1ccc([N+](=O)[O-])cc1

>  <test-result>
89.5

$$$$
>  <smiles>
Cc1sc2nc(NCCc3cccs3)[nH]c(=O)c2c1C

>  <test-result>
59.6

$$$$
>  <smiles>
CCSc1nc(Nc2ccc(S(=O)(=O)Nc3ccon3)cc2)c(C#N)c(-c2cccc(Br)c2)n1

>  <test-result>
87.3

$$$$
>  <smiles>
COc1ccc(CCN2C(=O)CCC3=C2CCCC3=O)cc1OC

>  <test-result>
97.6

$$$$

Proceed to the following item.
growth for "COc1ccc2c(c1)c(CC(=O)[Se]C)c(C)n2C(=O)c1ccc(Cl)cc1" ?
14.9

---

# System: KM12 colon
# protocol-text: NCI-60 one-dose screen, 48 h
# study-conditions: 10 µM unless noted
This is part of a sample that, as a whole, favours compounds with a hit. Of some 83,000 tested, about 20% had one in any assay. Activity calls are given as the source filed them. How the source made its calls: active means growth percent below 10; inactive means the rest.
Respond with a class label; see active, inactive

Which outcome was assigned to "CSc1nc(Nc2ccc(S(=O)(=O)Nc3ccon3)cc2)c(C#N)c(-c2ccc(Cl)cc2)n1" in this test?
inactive

Now try "Cc1cccc2nnc(-c3ccccc3)n12" .
inactive

Now try CC(=O)N1N=C(c2ccc(Nc3ccnc4cc(Cl)ccc34)cc2)CC1c1ccc(Cl)cc1 (stereo unspecified) .
inactive

Now try "C=CCNC(=O)/C(=C/c1cccc([N+](=O)[O-])c1)NC(=O)c1ccccc1" .
inactive

Now try "CNc1nc(NC2CCCC2)nc(Sc2ccc(OC)cc2)n1" .
active

Now try "CC(C)C[C@H](NC(=O)/C=C/Cn1ccc2ccccc2c1=O)B(O)O" .
inactive
